Each recorded value in this set is attributed to paper PMC8162404.

measuredTarget: CaM (Bos taurus, UniProt P62157)
Construct: made in house; host or cells: E. coli BL21 (DE3)
experimentNotes: Competition pull-down with native ligand TRPV1-Ct15
Assay type: binding, bovine
conditionInfo: H14 library; competitor peptide 200 µM; read-out: Surface mapping KD (apparent), competition
endpointName: pKd
Answers are plain numbers, as −log10 of the molar value.

itemSmiles	measuredValue
C[C@@H](CC(=O)N[C@H]1CCCC[C@@H]1C(N)=O)NC(=O)[C@H]1CCCC[C@@H]1NC(=O)[C@H]1CCCC[C@@H]1NC(=O)C[C@H](Cc1ccc(O)cc1)NC(=O)[C@H]1CCCC[C@@H]1N	3.44

For every record below, what is its pKd?
1. CC(C)C[C@@H](CC(=O)N[C@H]1CCCC[C@@H]1C(N)=O)NC(=O)[C@H]1CCCC[C@@H]1NC(=O)[C@H]1CCCC[C@@H]1NC(=O)C[C@H](Cc1c[nH]c2ccccc12)NC(=O)[C@H]1CCCC[C@@H]1N
2. CC(C)C[C@@H](CC(=O)N[C@H]1CCCC[C@@H]1C(N)=O)NC(=O)[C@H]1CCCC[C@@H]1NC(=O)[C@H]1CCCC[C@@H]1NC(=O)C[C@H](CC(N)=O)NC(=O)[C@H]1CCCC[C@@H]1N

1. 4.26
2. 3.46
